- assay-name: Pharmacokinetics of AE-PM components and their phase II metabolites in rat plasma after single oral administration (UHPLC-MS/MS, with and without sulfatase hydrolysis)
- condition-parameters: rat, plasma, po, 50 g/kg, AUC (0-∞), Normal group rats; oral AE-PM 50 g/kg; plasma; n = 6
AUC(0-inf) of 4000 ng·h/mL or higher: T. Under 4000 ng·h/mL: F.

Answer whether AUC(0-inf) of `O=C1c2cccc(O)c2C(=O)c2c(O)cc(CO)cc21` is greater than or equal to 4000 ng·h/mL.
F

Evaluate `OC[C@H]1O[C@@H](Oc2c(O)cc(O)cc2/C=C/c2ccc(O)cc2)[C@H](O)[C@@H](O)[C@@H]1O` : AUC(0-inf) at minimum 4000 ng·h/mL?
T

For this compound, is measured AUC(0-inf) 4000 ng·h/mL or higher? COc1cc(O)c2c(c1)C(=O)c1cc(C)cc(O[C@@H]3O[C@H](CO)[C@@H](O)[C@H](O)[C@H]3O)c1C2=O [P-glu, physcion-8-O-β-D-glucoside]
F

Given `Oc1cc(O)c2c(c1)O[C@H](c1ccc(O)c(O)c1)[C@@H](O)C2` , state whether its AUC(0-inf) is at least 4000 ng·h/mL.
T

Hi, just wondering whether `COc1cc(O)c2c(c1)C(=O)c1cc(C)cc(O)c1C2=O` shows AUC(0-inf) of 4000 ng·h/mL or higher.
T

Is reported AUC(0-inf) greater than or equal to 4000 ng·h/mL here: `Cc1cc(O)c2c(c1)C(=O)c1cc(O)cc(O)c1C2=O`
F

Quick check: does Cc1cc(O[C@@H]2O[C@H](CO)[C@@H](O)[C@H](O)[C@H]2O)c2c(c1)C(=O)c1cc(O)cc(O)c1C2=O [E-glu, emodin-8-O-β-D-glucoside] have AUC(0-inf) greater than or equal to 4000 ng·h/mL?
F
